Source listed as patent US20250270341A1.

Assign MFI ratio over secondary antibody to each entry below.
Biological target: T1, human CD98hc endogenously expressed on HCMEC/D3 cells (human)
T1 construct: human brain endothelial cell line
T1 chain: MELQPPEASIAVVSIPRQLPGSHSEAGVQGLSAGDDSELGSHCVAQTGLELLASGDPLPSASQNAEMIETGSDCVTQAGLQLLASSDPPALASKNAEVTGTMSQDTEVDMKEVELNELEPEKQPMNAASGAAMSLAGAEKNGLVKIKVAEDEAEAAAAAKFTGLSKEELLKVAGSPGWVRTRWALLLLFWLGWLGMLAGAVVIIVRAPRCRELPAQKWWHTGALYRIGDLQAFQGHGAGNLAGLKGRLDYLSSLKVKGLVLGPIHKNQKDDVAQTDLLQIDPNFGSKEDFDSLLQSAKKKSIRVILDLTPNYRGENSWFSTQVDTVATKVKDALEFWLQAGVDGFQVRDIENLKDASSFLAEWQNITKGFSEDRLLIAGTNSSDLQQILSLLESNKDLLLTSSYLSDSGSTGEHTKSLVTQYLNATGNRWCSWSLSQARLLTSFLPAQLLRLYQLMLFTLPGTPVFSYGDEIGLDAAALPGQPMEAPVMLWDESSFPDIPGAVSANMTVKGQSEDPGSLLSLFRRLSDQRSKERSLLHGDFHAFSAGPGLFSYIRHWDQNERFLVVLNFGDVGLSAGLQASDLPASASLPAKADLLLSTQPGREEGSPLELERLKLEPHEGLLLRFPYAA
Assay: FACS, hybridoma supernatant

>  <binder>
CD98HC.04.009 (antibody, V domains shown, hybridoma IgG) VH: QVQLKESGPGLVAPSQSLSITCTVSGFSLTSYGVHWVRQPPGKGLEWLGVIWAGGSTYYNSALMSRLSISKDNAKSQVLLKMSSLQTDDTAMYYCARDNYGGVYLDVWGAGTTVTVSS VL: ENVLTQSPASMSASPGEKVTMTCRASSSVSSSYLHWYQQKSGASPKLWIYSTSNLASGVPARFSGSGSGTSYSLTISSVEAEDAATYYCQQYSGYPLTFGSGTKLEIK

>  <recorded_value>
131

$$$$
>  <binder>
CD98HC.04.011 (antibody, V domains shown, hybridoma IgG) VH: DVQLQESGPDLVKPSQSLSLTCSVTVYSFTSVYSWHWIRQFPGNKLEWMGYIHDSGTTNYNPSLKSRISVTRDTSKNQFFLQLNSVTTEDTATYYCARGRPYGYDGFAYWGQGTLVTVSA VL: DIQMTQSSSYLSVSLGDRVTITCKASDHINNWLAWYQQKPGNAPRLLITGAVNLETGVPSRFSGSGSGKDYTLSITSLQTEDVATYYCQQYWSIPRTFGGGTNLEIK

>  <recorded_value>
192

$$$$
>  <binder>
CD98HC.04.022 (antibody, V domains shown, hybridoma IgG) VH: EVQLQQSGAELVKPGASVKLSCTASGFNIKDTFMHWMKQRPEQGLEWIGRIDPANANTRYDPKFQGKATITTDTSSNTAYLQLSSLTSEDTAVYYCARDVYYDVWGAGTTVTVSS VL: DILMTQSPSSMSVSLGDTVTITCHASQGISSNIGWLQQKPGRSFKGLIYHGSNLEDGVPSRFTGSGSGTDYSLTISGLESEDFADYYCVQYAQFPRTFGGGTKLEIQ

>  <recorded_value>
102

$$$$
>  <binder>
CD98HC.04.062 (antibody, V domains shown, hybridoma IgG) VH: EVQLVESGGDLVKPGGSLKLSCTASRFAFSTYDMSWVRQTPEKRLEWVAYISSGGGSTYFPDTVKGRFTISRDNAKNTLYLQMSSLKSEDTAMYYCARQDGHYPWFPYWGQGTLVTVSA VL: DIVMSQSPSSLAVSVGEKVTMSCKSSQSLLYSGNQKTYLAWYQQKPGQSPKPLIYWASTRESGIPDRFTGSGSGTDFTLTISSVKAEDLAVYYCQQYYSYPPTFGAGTKLELK

>  <recorded_value>
91.8

$$$$

Alright, here's another binder for you.
### Prompt MFI ratio over secondary antibody for CD98HC.03.002 (antibody, V domains shown, hybridoma IgG) VH: DVQLVESGGGLVQPGGSRKLSCAASGFTFSTFGMHWVRQAPEKGLEWVAYISGGSTNIYYADTVKGRFTISRDNPKNTLFLQMTSLRSEDTAMYYCARETTLLATNFDYWGQGTTLTVSS VL: DIQMTQTTSSLSASLGDRVTISCRASQDISNYLNWYQQKPDGTVKLLIYYTSRLHSGVPSRFSGSGSGTDYSLTISNLEQEDIATYFCQQGSTLPRTFGGGTKLEIK ?
### Response 233
